B1: Twister Ribozyme (parent)
chain: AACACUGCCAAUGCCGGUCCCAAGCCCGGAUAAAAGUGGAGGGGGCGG

variants of: B1; test: self-cleavage, relative activity (ratio to wild type); higher = more cleavage; co-transcriptional
Form field: self-cleavage (one value per entry).
endpoint label: self-cleavage

{"biosequence": "AACACUGCCCAUGCCGGUCUCAAGCCCGGAUAAAAGUGGAGGGGGCGG", "numeric readout": 0.941}
{"biosequence": "AACACUGCCAAUGCCGGUCCCAAGCCCGGAUAAAAGUGGAAGUGGCGG", "numeric readout": 0.135}
{"biosequence": "AACACUGCCAAUGCCGGUCUCAAGCCCGGAUAAAAGGGGAGGGGGCGG", "numeric readout": 0.702}
{"biosequence": "AACACUGCCAAUGCCGGUACCAAGCCCGGAUAAAAGUCGAGGGGGCGG", "numeric readout": 0.0851}
{"biosequence": "AACACUGCCAAUGCCGGUCCCAAGCCCGGAUAAAAGAGGAGGAGGCGG", "numeric readout": 0.145}
{"biosequence": "AAAACUGCCAAUGCCGAUCCCAAGCCCGGAUAAAAGUGGAGGGGGCGG", "numeric readout": 0.0964}
{"biosequence": "AACACUGCCAAAGCCGGUCCCAAGCCCGGAUAAAAGUGGAAGGGGCGG", "numeric readout": 0.696}
{"biosequence": "AACACUGCCAAUGGCGCUCCCAAGCCCGGAUAAAAGUGGAGGGGGCGG", "numeric readout": 0.124}
{"biosequence": "AACACUGCCAAUGCCGGUCCCAAGCCCGGAUAUAAGUGGAGGGGCCGG", "numeric readout": 0.554}
{"biosequence": "AACACUGCCAAUGGCGGUCCCAAGCCCGGAUAAUAGUGGAGGGGGCGG", "numeric readout": 0.159}
{"biosequence": "AACACUGCCAAUGCCGGGCCCAAGCCGGGAUAAAAGUGGAGGGGGCGG", "numeric readout": 0.0399}
{"biosequence": "AACACUGCCAAUGCCGGUCCCAAGCCCGGAUAAGAGUGGAGGGCGCGG", "numeric readout": 0.783}
{"biosequence": "AACACUGCCAAUGCCGGUCCCAAGCCCGUAAAAAAGUGGAGGGGGCGG", "numeric readout": 0.999}
{"biosequence": "AACACUGCCCAUGCCGGUCCCAAGCCCGGAUAAAAGUGGAGGGGGCUG", "numeric readout": 0.741}
{"biosequence": "AACACUGCCAAUGACGGUCCCAAGCCCGGAUAAAAGUGGAAGGGGCGG", "numeric readout": 0.591}
{"biosequence": "AACAGUGCCAAUGCCGGUCCCAAGCCCGGAUAAAAGUGGAGGGGGCGU", "numeric readout": 0.627}
{"biosequence": "GACACUGCCAAUGCCGGUCCCAAGCCCGGAUAAAAGGGGAGGGGGCGG", "numeric readout": 0.295}
{"biosequence": "AACACUGCCAAUGCCGGUCCCAAGGCCGGAUAUAAGUGGAGGGGGCGG", "numeric readout": 0.246}
{"biosequence": "AACACAGCCAAUGCCGGUCCCAAGCCCGGAUAAAAGUGGAGGGGGAGG", "numeric readout": 0.809}
{"biosequence": "AACACUGCCAAUACCGGUCCCAAGUCCGGAUAAAAGUGGAGGGGGCGG", "numeric readout": 0.387}
{"biosequence": "AACACUGCCAAUGACGGUCCCCAGCCCGGAUAAAAGUGGAGGGGGCGG", "numeric readout": 1.09}
{"biosequence": "AACACUGCCGAUGCCGGUCCCAAGCCCGGAUAAAAGUGGAGGGUGCGG", "numeric readout": 1.04}
{"biosequence": "AACACUGACAAUGCCGGUCCCAAGCCCGGAUAAAAGUGGAGGAGGCGG", "numeric readout": 0.177}
{"biosequence": "AACACUGCCAAAGCCGGUCCCAAGCGCGGAUAAAAGUGGAGGGGGCGG", "numeric readout": 0.446}
{"biosequence": "AACACUGCCACUGCCGGUCCCAAGCCCGGAGAAAAGUGGAGGGGGCGG", "numeric readout": 0.917}
{"biosequence": "AACACUGCCAAUGCCGGUCCCAAGCCCGGAUAAAAGUGGAGGGCGAGG", "numeric readout": 0.28}
{"biosequence": "ACCACUGCCAAUGCCGGUCCCAAGCCCGGAUCAAAGUGGAGGGGGCGG", "numeric readout": 0.1}
{"biosequence": "AACACUGCCAAUGCCGGUCCCGAGCCCGGAUAAAAGUGGAGGGGUCGG", "numeric readout": 0.143}
{"biosequence": "AACACUGCCGAUGCCGGUCUCAAGCCCGGAUAAAAGUGGAGGGGGCGG", "numeric readout": 0.878}
{"biosequence": "UACACUGCCAAUGCCGGUCCCAAGCCCGGAUAAAAGUGGAGGUGGCGG", "numeric readout": 0.0499}
{"biosequence": "AGCACUGCCAAUGCCUGUCCCAAGCCCGGAUAAAAGUGGAGGGGGCGG", "numeric readout": 0.301}
{"biosequence": "AACACUGCCAAUGCCGGUCCCAAGCCCGAAUAAAAGUGGAGCGGGCGG", "numeric readout": 0.46}
{"biosequence": "AACACUGCCAAUGCCGGUCCCAAGCCCGGAUGAAAGUGUAGGGGGCGG", "numeric readout": 0.158}
{"biosequence": "AACACAGCCAAAGCCGGUCCCAAGCCCGGAUAAAAGUGGAGGGGGCGG", "numeric readout": 1.13}
{"biosequence": "AACACUGCCAAUGCCGGUCCCGGGCCCGGAUAAAAGUGGAGGGGGCGG", "numeric readout": 0.0844}
{"biosequence": "AACACUGCCAAUGCCGGUCCCAAGCCCAGAUAAAAGUGGAGGGGGCGG", "numeric readout": 0.897}
{"biosequence": "AACACUGCCACUGCCGGUCCCACGCCCGGAUAAAAGUGGAGGGGGCGG", "numeric readout": 0.0766}
{"biosequence": "AACACUGCCAAUGCCGGUCCCAAGCCCGAAUAAAAGUGGAGGGGUCGG", "numeric readout": 0.578}
{"biosequence": "AACACUGCCAAUGGCGGUCCCAAGCCCGGAUAAAAGUGGAGGUGGCGG", "numeric readout": 0.08}
{"biosequence": "AUCACUGCCAAUGCCGCUCCCAAGCCCGGAUAAAAGUGGAGGGGGCGG", "numeric readout": 0.0754}
